apparent KD of MS2 coat protein overview
- Test system: MS2 coat protein
- assay remarks: apparent KD of MS2 coat protein; designed switch direction (-1 OFF switch, 1 ON switch): 1; higher = weaker reporter binding
- condition notes: input ligand: FMN 200 uM
assay readout: apparent KD of MS2 coat protein (nM)

1. GCUAGAAAUAAAGCCAACAUGAGGAUCACCCAUGUAUGUUGGCAGGAUAUCGUAUGCAAAGCAUACGAGAAGGGCUAAACUAGC [Mat - Same State NG 3 - JL Mod - D6] (Eterna round: R96, puzzle: Same State NG 3)
129
2. UGGUACAUGGGAGGAUAUGGGCAUGAGACAUGAGGAUCACCCAUGUAUUAAAAGCCGAGAGGCAUCUAGAAGGCCCAUGUACCU [JL SSNG1 3.89] (Eterna round: R96, puzzle: Same State NG 2)
15.8
3. GGAGCCGGCACCGAGGAUAUUCAUAUUAAAACAUGAGGAUCACCCAUGUAGGCCAGAAGGCCUUGGGAGAAGGCGGAUCGGCUCG [Xeonanis] (Eterna round: R96, puzzle: Same State 2)
33.2
4. GCGAGUGCCACAGGAUAUUCGGCUGUUUCGCUCGAAGAAGGGUGCCGCAUGCAAUAAAGAAAACAUGAGGAUCACCCAUGUGAA [Uszavege] (Eterna round: R96, puzzle: Same State NG 1)
527

* * *

apparent KD of MS2 coat protein overview
- Tested on: MS2 coat protein
- assay remarks: apparent KD of MS2 coat protein; designed switch direction (-1 OFF switch, 1 ON switch): 1; higher = weaker reporter binding
- condition notes: Eterna round: R95; input ligand: microRNA oligo, concentration not stated
assay readout: apparent KD of MS2 coat protein (nM)

1) CGUCCGGCCUGAGCUGGACGGAAGCUUGUACAUGAGGAUCACCCAUGUUCAUGUGCAGGCUUUUUGCUCGUCUUGUG [salish99_mir208a_modof_jandersonlee] (puzzle: Sensor for hsa-mir-208a)
18.8
2) AACAAUCUAUCUCAGGAUAUCAUGUCAAAGACAUGAGGAUCACCCAUGUACCAGGAAACUGGUUAUGAGAAGGGAGAUAGAUUGG [Mat - Same State 2 - Mod - D28] (puzzle: Same State 2)
438
3) UGAGCCGGCACUGAGGAUAUUCAUAAUAAAACAUGAGGAUCACCCAUGUAGGCCAGAAGGCCUUGGGAGAAGGCAGGUCGGCUCA [Mat - Same State 2 - Mod of UCT - D71] (puzzle: Same State 2)
134
4) CUCAAACAUGAGGAUCACCCAUGUGUUGUCAUGGGAGGAUAUCUAAGUUCAUUGUAUUCGGGAGAAGGCCUAUGUC [× ×•×ª×• ×ž×“×™× ×” × ×—×ª-09] (puzzle: Same State 1)
362
5) GUAGGACAUGAGGAUCACCCAUGUGGAGAGGAACGAGGAUAUGUGAGAGGAGUGCAGAGGACAGAAGGCGUGGAGG [JR_SS1_Sub027] (puzzle: Same State 1)
31.1
6) UUAAGCCACGGGCAGGAUAUGUAUUAAAAUACAUGAGGAUCACCCAUGUGCAGGUGUAACACCUGACAGAAGGGCCAAUCGAGGC [Soteed - 6] (puzzle: Same State 2)
182
7) UGUCCAGCCUGAGCUGGACAAAAGCAUGUACAUGAGGAUCACCCAUGUUCAUGUACAAGCUUUUUGCUCGUCUUAGC [salish99_208a_r3_067] (puzzle: Sensor for hsa-mir-208a)
13.6

Just for reference, the supplement of paper PMC9170038 is where these values come from.
